melting point by entry:

Examples from the recorded data:
molecule: CC1(C(=O)c2c[nH]c3ncc(Br)nc23)CCCCCC1 [Compound I-24]
value: 197.7 to 198.2 °C
--
molecule: CC(C)(C)C(=O)c1c[nH]c2ncc(Br)nc12 [Compound I-8]
value: 213 to 214 °C
--
molecule: CC(C)CC(=O)c1c[nH]c2ncc(Br)nc12 [Compound I-1]
value: 183 to 187.5 °C

# input Given the molecule C#Cc1cnc2[nH]cc(C(=O)C(C)(C)C)c2n1 [Compound I-11] , what is its reported melting point?
# output 229 to 231 °C

# input // lookup melting point for CC1(C(=O)c2c[nH]c3ncc(Br)nc23)CCCCC1 [Compound I-7]
# output 198 to 199 °C
